Test system: SH-SY5Y cells
assayText: Aβ-induced SH-SY5Y viable cell number, cell counting by TC10 System
Assay type: cell-based, human
recordedConditions: Aβ (1-42) 1 μg/mL, 24 hours; 10^−7 M
Method: Glial cells (C6) were cultured in 10% FBS supplemented DMEM, and SHY-5SY were cultured in 10% FBS supplemented RPMI. Neuronal cells were differentiated with retinoic acid. After 24 hours of starvation glial cells and SHY-5SY were treated with CBDV (10^−7M), CBD (10^−7 M), CBDVA (10^−7 M), CBDA (10^−7 M) and THCVA (10^−7 M) in presence or absence of Aβ (1-42) (1 μg/mL) for following 24 hours. […]
valueType: Aβ induced SH-SY5Y cell death (viable cell number, cell counting)

Observe how each entry below is paired with its result.
- compound: "C=C(C)[C@@H]1CCC(C)=C[C@H]1c1c(O)cc(CCCCC)cc1O [CBD, cannabidiol]"
  testedOn: "SH-SY5Y cells"
  reportedValue: "able to prevent"
- compound: "C=C(C)[C@@H]1CCC(C)=C[C@H]1c1c(O)cc(CCCCC)c(C(=O)O)c1O [CBDA]"
  testedOn: "SH-SY5Y cells"
  reportedValue: "No significant effect"
- compound: "CCCc1cc2c(c(O)c1C(=O)O)[C@@H]1C=C(C)CC[C@H]1C(C)(C)O2 [THCVA]"
  testedOn: "SH-SY5Y cells"
  reportedValue: "No significant effect"
- compound: "C=C(C)[C@@H]1CCC(C)=C[C@H]1c1c(O)cc(CCC)c(C(=O)O)c1O [CBDVA, cannabidivarin acid]"
  testedOn: "SH-SY5Y cells"
  reportedValue: "able to prevent"

Proceeding to the next compound to report its Aβ induced SH-SY5Y cell death (viable cell number, cell counting).
For the compound C=C(C)[C@@H]1CCC(C)=C[C@H]1c1c(O)cc(CCC)cc1O [CBDV, cannabidivarin] , give its measured Aβ induced SH-SY5Y cell death (viable cell number, cell counting) value.
able to prevent
